# tested-on: Metabotropic glutamate receptor 2 (Rattus norvegicus)
# assay-text: Antagonist activity at rat mGluR2 expressed in CHO cells assessed as inhibition of glutamta-induced GIRK current
# Assay type: functional, cell-based
quantity-kind: IC50 (nM)
Quick note: give the figure in nM, leave out the unit.

Form field - read-out: IC50; system: Metabotropic glutamate receptor 2 (Rattus norvegicus); submitted item: O=C1CC(c2cccc(-n3ccnc3)c2)=Nc2ccc(-c3ccccc3F)cc2N1
11

Please give the result for O=C1CC(c2cccc(-n3ccnc3)c2)=Nc2ccc(-c3ccc(F)cc3)cc2N1 too.
299

Please give the result for O=C1CC(c2cccc(-n3ccnn3)c2)=Nc2ccc(-c3ccccc3F)cc2N1 too.
22

Please give the result for O=C1CC(c2cccc(-n3ccnc3)c2)=Nc2cc(O)c(-c3ccccc3F)cc2N1 too.
35

Please give the result for O=C1CC(c2cccc(-n3ccnc3)c2)=Nc2cc(O)c(C#Cc3ccc(F)cc3)cc2N1 too.
24

###

Give measured Kp at 1.5 h for each item. Keep answers brief.
# assay-text: Ratio of drug level in brain to plasma at 10 mg/kg, po after 1.5 hrs
# Type: ADME, organism-based
# Set-up: dose 10 mg/kg, route oral
# condition-info: rat
Reply with just the number.

So what does the record say about Kp at 1.5 h for O=C1CC(c2cccc(-n3ccnc3)c2)=Nc2ccc(-c3ccccc3F)cc2N1 ?
0.5

Please give the result for O=C1CC(c2cccc(-n3ccnn3)c2)=Nc2ccc(-c3ccccc3F)cc2N1 too.
0.9

###

# assay-text: Drug level in rat brain at 10 mg/kg, po after 1.5 hrs
# Assay type: ADME, organism-based
# Design: dose 10 mg/kg, route oral
# condition-info: read-out: Drug uptake
quantity-kind: concentration at 1.5 h
Phrase the answer as number then unit, nothing more needed.

So what does the record say about concentration at 1.5 h for O=C1CC(c2cccc(-n3ccnc3)c2)=Nc2ccc(-c3ccccc3F)cc2N1 ?
1340 ng/mL

Please give the result for O=C1CC(c2cccc(-n3ccnn3)c2)=Nc2ccc(-c3ccccc3F)cc2N1 too.
1060 ng/mL

###

# assay-text: Plasma concentration in rat at 10 mg/kg, po after 1.5 hrs
# Assay type: ADME, organism-based
# Set-up: dose 10 mg/kg, route oral
Give measured concentration at 1.5 h for each item. Keep answers brief.
Quick note: give the figure in ng/mL, leave out the unit.

So what does the record say about concentration at 1.5 h for O=C1CC(c2cccc(-n3ccnc3)c2)=Nc2ccc(-c3ccccc3F)cc2N1 ?
2660

Please give the result for O=C1CC(c2cccc(-n3ccnn3)c2)=Nc2ccc(-c3ccccc3F)cc2N1 too.
1420

###

# tested-on: UniProtKB P31421
# assay-text: Displacement of [3H]LY354740 from rat mGluR2
Cut-off 40 nM on IC50: below means MET, at or above means NOT MET.

Determine if O=C1CC(c2cccc(-n3ccnn3)c2)=Nc2ccc(-c3cc(F)ccc3F)cc2N1 shows IC50 strictly lower than 40 nM.
MET

Please give the result for Cc1cc2c(cc1C(F)(F)F)NC(=O)CC(c1cccc(-n3ccnn3)c1)=N2 too.
MET

Please give the result for CC(C)c1ccc2c(c1)NC(=O)CC(c1cccc(-n3ccnn3)c1)=N2 too.
NOT MET

Please give the result for O=C1CC(c2cccc(-n3ccnc3)c2)=Nc2ccc(C3CC3)cc2N1 too.
NOT MET

Please give the result for O=C1CC(c2cccc(-n3ccnc3)c2)=Nc2ccc(C(F)(F)F)cc2N1 too.
NOT MET

Please give the result for CC(C)CNc1cc2c(cc1C(F)(F)F)NC(=O)CC(c1cccc(-n3ccnn3)c1)=N2 too.
NOT MET

Please give the result for O=C1CC(c2cccc(-n3ccnn3)c2)=Nc2ccc(Cl)cc2N1 too.
NOT MET

Please give the result for COc1cc2c(cc1C(F)(F)F)NC(=O)CC(c1cccc(-n3ccnn3)c1)=N2 too.
MET

Please give the result for O=C1CC(c2cccc(-n3ccnc3)c2)=Nc2ccc(-c3cc(F)ccc3F)cc2N1 too.
MET

Please give the result for CCOc1cc2c(cc1C(F)(F)F)NC(=O)CC(c1cccc(-n3ccnn3)c1)=N2 too.
MET

Please give the result for O=C1CC(c2cccc(-n3ccnc3)c2)=Nc2ccc(Br)cc2N1 too.
NOT MET

Please give the result for O=C1CC(c2cccc(-n3ccnc3)c2)=Nc2ccc(-c3cccc(F)c3)cc2N1 too.
MET

Please give the result for CC(C)CNc1cc2c(cc1C(F)(F)F)NC(=O)CC(c1cccc(-n3ccnc3)c1)=N2 too.
MET

Please give the result for O=C1CC(c2cccc(-n3ccnn3)c2)=Nc2ccc(-c3ccc(F)cc3)cc2N1 too.
MET

Please give the result for O=C1CC(c2cccc(-n3ccnc3)c2)=Nc2cc(O)c(-c3ccccc3F)cc2N1 too.
MET

Please give the result for O=C1CC(c2cccc(-n3ccnc3)c2)=Nc2cc(Cl)c(C(F)(F)F)cc2N1 too.
MET

Please give the result for O=C1CC(c2cccc(-n3ccnn3)c2)=Nc2ccc(C(F)F)cc2N1 too.
NOT MET

Please give the result for O=C1CC(c2cccc(-n3ccnn3)c2)=Nc2ccc(-c3ccccc3F)cc2N1 too.
MET

Please give the result for CCc1cc2c(cc1C(F)(F)F)NC(=O)CC(c1cccc(-n3ccnc3)c1)=N2 too.
MET

Please give the result for CC(C)CN(C)c1cc2c(cc1C(F)(F)F)NC(=O)CC(c1cccc(-n3ccnn3)c1)=N2 too.
MET

Please give the result for O=C1CC(c2cccc(-n3ccnn3)c2)=Nc2ccc(C(F)(F)F)cc2N1 too.
NOT MET

Please give the result for O=C1CC(c2cccc(-n3ccnn3)c2)=Nc2ccc(OCC(F)(F)F)cc2N1 too.
NOT MET

Please give the result for Cc1cc2c(cc1C(F)(F)F)NC(=O)CC(c1cccc(-n3ccnc3)c1)=N2 too.
MET

Please give the result for CN(C)c1cc2c(cc1C(F)(F)F)NC(=O)CC(c1cccc(-n3ccnn3)c1)=N2 too.
MET

Please give the result for O=C1CC(c2cccc(-n3ccnc3)c2)=Nc2ccc(-c3ccccc3F)cc2N1 too.
MET

Please give the result for O=C1CC(c2cccc(-n3ccnn3)c2)=Nc2cc(Cl)c(C(F)(F)F)cc2N1 too.
MET

Please give the result for O=C1CC(c2cccc(-n3ccnn3)c2)=Nc2ccc(Br)cc2N1 too.
NOT MET

Please give the result for O=C1CC(c2cccc(-n3ccnc3)c2)=Nc2ccc(-c3ccc(F)cc3)cc2N1 too.
MET

Please give the result for CN(C)c1cc2c(cc1C(F)(F)F)NC(=O)CC(c1cccc(-n3ccnc3)c1)=N2 too.
MET

###

Give measured pIC50 for each item. Keep answers brief.
# tested-on: Metabotropic glutamate receptor 2 (Rattus norvegicus, UniProt P31421)
# Sequence (P31421 whole entry): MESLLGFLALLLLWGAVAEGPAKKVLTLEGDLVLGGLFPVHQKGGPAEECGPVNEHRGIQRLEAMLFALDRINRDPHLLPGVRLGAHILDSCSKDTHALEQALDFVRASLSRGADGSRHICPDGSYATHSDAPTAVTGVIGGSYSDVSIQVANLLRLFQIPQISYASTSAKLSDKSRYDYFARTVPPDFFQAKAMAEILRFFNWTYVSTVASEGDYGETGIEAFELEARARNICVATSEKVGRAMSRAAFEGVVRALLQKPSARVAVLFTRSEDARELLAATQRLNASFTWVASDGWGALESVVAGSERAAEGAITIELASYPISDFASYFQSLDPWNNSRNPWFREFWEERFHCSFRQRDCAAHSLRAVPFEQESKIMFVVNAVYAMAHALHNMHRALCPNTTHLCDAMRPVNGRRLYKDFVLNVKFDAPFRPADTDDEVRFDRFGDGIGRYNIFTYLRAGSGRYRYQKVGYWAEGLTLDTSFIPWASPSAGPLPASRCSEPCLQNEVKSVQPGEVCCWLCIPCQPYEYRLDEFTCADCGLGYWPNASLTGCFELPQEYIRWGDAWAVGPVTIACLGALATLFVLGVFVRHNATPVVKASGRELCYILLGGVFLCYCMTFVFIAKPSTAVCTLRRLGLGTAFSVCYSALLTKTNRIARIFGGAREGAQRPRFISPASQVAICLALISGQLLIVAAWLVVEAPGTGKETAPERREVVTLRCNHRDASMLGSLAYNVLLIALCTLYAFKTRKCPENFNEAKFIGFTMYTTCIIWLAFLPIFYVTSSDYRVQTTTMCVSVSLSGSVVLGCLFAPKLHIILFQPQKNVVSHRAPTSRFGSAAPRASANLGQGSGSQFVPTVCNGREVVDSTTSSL
# assay-text: Antagonist activity at rat mGluR2 assessed as blockade of (1S,3R)-ACPD-induced inhibition of forskolin-stimulated cAMP production
# Assay type: functional
Lab note — pIC50 values are minus log10 of concentrations in M.

So what does the record say about pIC50 for CCc1cc2c(cc1C(F)(F)F)NC(=O)CC(c1cccc(-n3ccnc3)c1)=N2 ?
8.00

Please give the result for O=C1CC(c2cccc(-n3ccnc3)c2)=Nc2ccc(-c3ccccc3F)cc2N1 too.
7.57

Please give the result for CN(C)c1cc2c(cc1C(F)(F)F)NC(=O)CC(c1cccc(-n3ccnn3)c1)=N2 too.
6.74

Please give the result for CC(C)CNc1cc2c(cc1C(F)(F)F)NC(=O)CC(c1cccc(-n3ccnn3)c1)=N2 too.
6.57

Please give the result for Cc1cc2c(cc1C(F)(F)F)NC(=O)CC(c1cccc(-n3ccnc3)c1)=N2 too.
7.72

Please give the result for CCOc1cc2c(cc1C(F)(F)F)NC(=O)CC(c1cccc(-n3ccnn3)c1)=N2 too.
7.47

Please give the result for CN(C)c1cc2c(cc1C(F)(F)F)NC(=O)CC(c1cccc(-n3ccnc3)c1)=N2 too.
7.28

Please give the result for O=C1CC(c2cccc(-n3ccnc3)c2)=Nc2ccc(-c3ccccc3)cc2N1 too.
7.33

Please give the result for O=C1CC(c2cccc(-n3ccnn3)c2)=Nc2ccc(-c3cc(F)ccc3F)cc2N1 too.
7.74

Please give the result for O=C1CC(c2cccc(-n3ccnn3)c2)=Nc2ccc(-c3ccccc3F)cc2N1 too.
7.43

###

# assay-text: Clearance in rat microsomes
# Format: ADME, Liver, Microsome
quantity-kind: CLint scaled (mL/min/kg)
Quick note: give the figure in mL/min/kg, leave out the unit.

So what does the record say about CLint scaled for O=C1CC(c2cccc(-n3ccnc3)c2)=Nc2cc(O)c(-c3ccccc3F)cc2N1 ?
100

###

# tested-on: Metabotropic glutamate receptor 3 (Rattus norvegicus, UniProt P31422)
# Sequence (P31422 whole entry): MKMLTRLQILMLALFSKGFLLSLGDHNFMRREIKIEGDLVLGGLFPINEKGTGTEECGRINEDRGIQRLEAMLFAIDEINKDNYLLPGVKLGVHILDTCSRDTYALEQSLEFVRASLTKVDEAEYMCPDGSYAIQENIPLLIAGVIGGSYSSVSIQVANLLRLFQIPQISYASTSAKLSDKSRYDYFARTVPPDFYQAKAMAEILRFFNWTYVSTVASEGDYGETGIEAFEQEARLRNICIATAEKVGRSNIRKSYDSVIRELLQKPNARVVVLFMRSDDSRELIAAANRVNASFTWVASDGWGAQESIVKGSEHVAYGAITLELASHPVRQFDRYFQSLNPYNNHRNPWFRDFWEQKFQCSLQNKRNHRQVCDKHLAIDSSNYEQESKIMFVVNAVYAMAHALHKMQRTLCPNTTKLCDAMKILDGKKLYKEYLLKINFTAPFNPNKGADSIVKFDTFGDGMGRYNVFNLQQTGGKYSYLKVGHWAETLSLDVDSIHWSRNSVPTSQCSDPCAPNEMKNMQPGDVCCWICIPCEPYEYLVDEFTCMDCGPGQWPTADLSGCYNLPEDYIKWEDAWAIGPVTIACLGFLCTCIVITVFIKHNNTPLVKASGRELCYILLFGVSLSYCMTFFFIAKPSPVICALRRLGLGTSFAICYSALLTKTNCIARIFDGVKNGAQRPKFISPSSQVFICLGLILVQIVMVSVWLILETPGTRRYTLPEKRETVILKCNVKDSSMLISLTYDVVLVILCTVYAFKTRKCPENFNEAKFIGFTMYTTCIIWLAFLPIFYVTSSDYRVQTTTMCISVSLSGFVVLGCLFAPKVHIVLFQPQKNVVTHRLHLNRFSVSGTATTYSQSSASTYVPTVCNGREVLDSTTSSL
# assay-text: Antagonist activity at rat mGluR3 expressed in CHO cells assessed as inhibition of glutamate-induced GIRK current
Give measured pIC50 for each item. Keep answers brief.
Lab note — pIC50 values are minus log10 of concentrations in M.

So what does the record say about pIC50 for O=C1CC(c2cccc(-n3ccnc3)c2)=Nc2ccc(-c3ccc(F)cc3)cc2N1 ?
7.77

Please give the result for O=C1CC(c2cccc(-n3ccnn3)c2)=Nc2ccc(-c3ccccc3F)cc2N1 too.
7.38

Please give the result for O=C1CC(c2cccc(-n3ccnc3)c2)=Nc2cc(O)c(-c3ccccc3F)cc2N1 too.
6.91

Please give the result for O=C1CC(c2cccc(-n3ccnc3)c2)=Nc2ccc(-c3ccccc3F)cc2N1 too.
7.48
